experiment: Pharmacokinetics of the vaginal system in 39 women over up to 13 product-use cycles; assay type: in vivo; set-up: concentration or dose not given beside the values; conditions: female, human, serum, Cycle 3, mean (SD), read-out: AUC0−21day
MEASUREMENT TYPE: AUC(0-t) (ng·h/mL)

> print(dat)
                    structure.smiles.string  numeric.result
1  C#C[C@]1(O)CC[C@H]2[C@@H]3CCc4cc(O)ccc4[C@H]3CC[C@@]21C            14.7

---

assay: Pharmacokinetics of the vaginal system in 39 women over up to 13 product-use cycles; format: in vivo; parameters: concentration or dose not given beside the values; conditions: female, human, serum, Cycle 1, mean (SD), read-out: AUC0−1 day
MEASUREMENT TYPE: AUC(0-t) (ng·h/mL)

> print(dat)
                    structure.smiles.string  numeric.result
1  C#C[C@]1(O)CC[C@H]2[C@@H]3CCc4cc(O)ccc4[C@H]3CC[C@@]21C             2.1

Data origin: patent US12303518B2
